Measured attribute: melting point

Qu. Need melting point, item COc1cc2c(cc1OC)C(CCCl)OCC2 (configuration not stated)
Ans. 161 to 163 °C

Qu. Here is the next compound: NC(=O)CCC(Nc1ccc2ccccc2n1)C(=O)O (configuration not stated)
Ans. 222 to 226 °C

Qu. Here is the next compound: CC(C)(C)OC(=O)NCCCCCCC(=O)Nc1ccc(-n2nc(C(F)(F)F)cc2C(F)(F)F)cc1
Ans. 86 to 88 °C

Qu. Here is the next compound: O=[N+]([O-])c1cc(Cl)c(Oc2cc(Cl)c(Br)cc2Cl)cc1Oc1ccccc1
Ans. 85 °C

Qu. Here is the next compound: Cc1n[nH]c2ccccc12
Ans. 110 to 113 °C

Qu. Here is the next compound: N#Cc1ccc(CC(NC(=O)C(Cc2ccccc2)S(=O)(=O)Nc2ccc3ccccc3c2)C(=O)N2CCCCC2)cc1 (configuration not stated)
Ans. 210 °C

Qu. Here is the next compound: CC(C)OCCC(=O)C=P(c1ccccc1)(c1ccccc1)c1ccccc1
Ans. 66 to 70 °C

Qu. Here is the next compound: NS(=O)(=O)c1cc2c(s1)SCC(=O)N2
Ans. 243 to 245 °C

Qu. Here is the next compound: N#CSCCNc1ccc(C(F)(F)F)cc1[N+](=O)[O-]
Ans. 115 to 117 °C

Qu. Here is the next compound: CCOC(=O)c1cc2ccc(Cl)cc2n1C
Ans. 75.5 to 76.5 °C

Qu. Here is the next compound: COc1ccnc(CS(=O)c2nc3cc(OC(F)F)ccc3n2S(=O)(=O)c2ccc(Cl)cc2)c1OC (configuration not stated)
Ans. 82 to 83 °C

Qu. Here is the next compound: NCCCP(=O)(O)c1ccccc1
Ans. 298 to 300 °C

Qu. Here is the next compound: CC(=O)c1ccc2c(c1)Cc1ccccc1O2
Ans. 103 to 104 °C

Qu. Here is the next compound: Cc1cc(C(F)(F)C(F)(F)F)ccc1NC(=O)c1cccc(I)c1C(=O)NC(C)(C)CS(C)(=O)=O
Ans. 143 to 144 °C

Qu. Here is the next compound: COc1cc2nc(CN(C)C)[nH]c(=O)c2cc1OC
Ans. 210 to 212 °C

Qu. Here is the next compound: CCc1cc(C#N)c(=O)[nH]c1COCc1ccccc1
Ans. 141 to 143 °C

Qu. Here is the next compound: Cc1ccc(C(=O)Nc2c(NC(=O)CN3CCCCC3)ccc3c2C(=O)c2ccccc2C3=O)cc1
Ans. 213 to 214 °C

Qu. Here is the next compound: CNc1nc(Nc2ccc(S(C)(=O)=O)cc2)ncc1[N+](=O)[O-]
Ans. 323 °C

Qu. Here is the next compound: Cc1c(-c2ccc(C#N)cc2)c(C#N)c(C2CC2)n1Cc1cnc(Cl)c(CO)c1
Ans. 193 to 194 °C

Qu. Here is the next compound: Fc1ccc(SC(F)(F)C(F)(F)C(F)(F)C(F)(F)C(F)(F)C(F)(F)C(F)(F)C(F)(F)Sc2ccc(F)cc2)cc1
Ans. 60 to 61 °C

Qu. Here is the next compound: CCOC(=O)c1cc(Cl)cnc1NC(=O)Cc1cccc(Oc2ccccc2)c1
Ans. 103 to 104 °C

Qu. Here is the next compound: COc1cc(Nc2nccc(Nc3ccccc3)n2)cc(OC)c1OC
Ans. 186 °C

meta.source: a melting point compilation (Tetko et al.; mined from patent text by program, amines drawn as free bases though some values may be those of a salt)
